Would you mind telling me the reported half-life of each entry?
# assay summary: Metabolic stability in human liver microsomes assessed as half life
# Type: ADME, Microsome
Quote the value and follow it with the unit of measurement.

{"columns": ["compound", "half-life"],
 "data": [
  ["COc1cccc(CN(CCN(C)C)C(=O)c2nc3ccc(-c4cn[nH]c4)cc3s2)c1", "15 min"]
]}

List the reported half-life of each compound below.
1. CN(C)CCCNC(=O)c1ccc2c(c1)CC(c1nc3ccc(-c4cn[nH]c4)cc3s1)CO2 (centres undefined)
2. CN(C)CCNC(=O)c1ccc2c(c1)CC(c1nc3ccc(-c4cn[nH]c4)cc3s1)CO2 (centres undefined)
3. Nc1nccc(-c2ccc3nc(C4COc5ccccc5C4)sc3c2)n1 (centres undefined)

[A]
34 min
35 min
47 min
